ASSAYED_SYSTEM: HLA-A*32:01
ASSAY_NAME: HLA binding; serotype 3
CONDITION_SET: chains peptide; modification not given
ENDPOINT_NAME: pIC50
pIC50 here: minus log base 10 of the concentration, concentration in moles per litre.

q: Return the recorded pIC50 value; entry: RQWFFDLPL […, serotype 3]
a: 8.15
